Where do these numbers come from? They come from the supplement of paper PMC5908809.

Test system: DERL-7 (IL-2 2.5 ng/mL)
Assay: drug sensitivity score (DSS) (DSS units); higher = more sensitive; extreme values may be limits of the assay
Conditions: 72 h
compounds and their reported drug sensitivity score
reportedMetric: drug sensitivity score

>>> reading("CC(C)(C)Cn1c(N)nc2ccc(-c3[nH]c(C(C)(C)C)nc3-c3ccc(F)cc3)nc21 [Ralimetinib] (max concentration tested 10000 nM)")
4
>>> reading("CC(C)CC(=O)Nc1n[nH]c2c1CN(C(=O)C1CCN(C)CC1)C2(C)C (max concentration tested 10000 nM)")
13.1
>>> reading("COc1ccc(-c2cc3c(C)nc(N)nc3n([C@H]3CC[C@H](OCCO)CC3)c2=O)cn1 (max concentration tested 10000 nM)")
27.6
>>> reading("Nc1cccc2c1C(=O)N(C1CCC(=O)NC1=O)C2=O (stereo unspecified) [Pomalidomide] (max concentration tested 10000 nM)")
0
>>> reading("CCC/C=C/C=C/C(=O)O[C@H]1/C(=C/C(=O)OC)C[C@H]2C[C@H]([C@@H](C)O)OC(=O)C[C@H](O)C[C@@H]3C[C@H](OC(C)=O)C(C)(C)[C@](O)(C[C@@H]4C/C(=C/C(=O)OC)C[C@H](/C=C/C(C)(C)[C@]1(O)O2)O4)O3 [Bryostatin 1] (max concentration tested 100 nM)")
8.96
>>> reading("COc1cc2nccc(Oc3ccc(NC(=O)NC4CC4)c(Cl)c3)c2cc1C(N)=O [Lenvatinib] (max concentration tested 2500 nM)")
0
>>> reading("CC(C)n1nc(-c2ccc3oc(N)nc3c2)c2c(N)ncnc21 [INK128] (max concentration tested 1000 nM)")
19.2
>>> reading("CC[C@@H]1C(=O)N(C)c2cnc(Nc3ccc(C(=O)N[C@H]4CC[C@H](N5CCN(CC6CC6)CC5)CC4)cc3OC)nc2N1C(C)C [Volasertib] (max concentration tested 1000 nM)")
20.2
>>> reading("CO[C@@H]1[C@H](N(C)C(=O)c2ccccc2)C[C@H]2O[C@]1(C)n1c3ccccc3c3c4c(c5c6ccccc6n2c5c31)C(=O)NC4 [Midostaurin] (max concentration tested 10000 nM)")
19.5
>>> reading("CC(=O)[C@]1(O)Cc2c(O)c3c(c(O)c2[C@@H](O[C@H]2C[C@H](N)[C@H](O)[C@H](C)O2)C1)C(=O)c1ccccc1C3=O [Idarubicin] (max concentration tested 1000 nM)")
26.1
>>> reading("CC(=O)Nc1ccc(C(=O)Nc2ccccc2N)cc1 [Tacedinaline] (max concentration tested 1000 nM)")
0
